B1: LINE1-full (parent)
chain: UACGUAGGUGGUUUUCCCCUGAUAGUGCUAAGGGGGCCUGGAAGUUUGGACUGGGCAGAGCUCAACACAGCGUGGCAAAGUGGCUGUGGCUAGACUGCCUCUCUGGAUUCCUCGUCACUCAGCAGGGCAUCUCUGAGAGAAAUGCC

Variants of: B1
Test: self-cleavage, relative activity (ratio to wild type); higher = more cleavage; in vitro, sequencing; the parent is a self-cleaving ribozyme
attribute.measured: self-cleavage
Output spec: single numeric token, no unit.

Recorded self-cleavage, per entry:
variant: C28A A78G
readout.value: 0.61

variant: C116U A124C
readout.value: 1.6

variant: A77G G83U
readout.value: 1.28

variant: G82U U143C
readout.value: 1.72

variant: G60A U100C
readout.value: 0.03

variant: U62G G82U
readout.value: 0.03

State the recorded self-cleavage for this entry: C56U C111U
0.19

What self-cleavage value was documented for this variant, U39C U130G ?
1.75
